meta.source: PubChem BioAssay (NCI)

System: SF-268 CNS
assay_protocol: NCI tumour cell line growth inhibition, 48 h
Please respond with reported TGI for every item in the list.

| compound | test_readout | value_reported |
| --- | --- | --- |
| NS(=O)(=O)c1ccc(NC(=O)c2ccc3nc4ccccc4c(Nc4ccc(S(N)(=O)=O)cc4)c3c2)cc1 | TGI | > 100 µM |
| O=c1oc2ccccc2n1P(=O)(Oc1ccc(Cl)cc1)n1c(=O)oc2ccccc21 | TGI | > 100 µM |

Below is a list of compounds. For each, state its recorded TGI.
1. S=C(S)NCCN1CCNCC1
2. OCC1OC(n2cnc3c(Cl)nc(Nc4ccc(Cl)c(Cl)c4)nc32)CC1O (stereo unspecified)

["> 100 µM", "28.6 µM"]

Below is a list of compounds. For each, state its recorded TGI.
1. O=C(Nc1cccc(-n2cc(-c3ccncc3)c(-c3ccc(Cl)c(O)c3)n2)c1)Nc1ccc(Cl)c(Cl)c1
2. CCOc1cc2c(cc1O)C(=O)C[C@@H]1[C@@H]2CC[C@]2(C)[C@@H](O)CC[C@@H]12
3. CC/C=C\C=C/C(=O)N/C=C/CCC
4. C=C1CC[C@@H]2[C@](C)(COC(=O)CCC(=O)O)CCC[C@@]2(C)[C@@H]1CCC1=CC(=O)OC1

10.9 µM
> 95.4 µM
> 100 µM
> 100 µM

Below is a list of compounds. For each, state its recorded TGI.
1. Fc1ccc(Nc2nc3nonc3nc2Nc2ccc(I)cc2)cc1
2. C/C(=N\O)c1cccc(Nc2c3ccccc3nc3occc23)c1
3. O=C1c2ccc3c4c(ccc(c24)C(=O)N1CCNCc1ccccc1)C(=O)N(CCNCc1ccccc1)C3=O
4. C=CC(=O)N1CCC[C@@H](n2nc(-c3ccc(Oc4ccccc4)cc3)c3c(N)ncnc32)C1
5. O=C(N/N=C/c1ccncc1)c1ccc(F)cc1
6. CCc1ncc(CO)n1Cc1cccc2ccccc12
7. CCOC(=O)CC1Nc2ccccc2C12CCc1c([nH]c3ccccc13)C2C(=O)OCC (stereo unspecified)
8. O=C(/C=C/C=C/c1ccc2c(c1)OCO2)N/N=C\c1ccc(O)cc1O

17.9 µM
56.9 µM
14.7 µM
> 10 µM
> 40 µM
> 100 µM
> 100 µM
17.1 µM
